// data source = ChEMBL document CHEMBL1123290

Form field: Delta MST (one value per entry).
Tested on: Plasmodium berghei
Test: Change in mean survival time for control (average 6.2 days) versus treated mice (Mus musculus) after 40 mg/kg subcutaneous dose
Format: functional
VALUE_KIND: Delta MST (days)

• CCN(CC)Cc1cc(Nc2cc[n+]([O-])c3cc(Cl)ccc23)cc(-c2cccc(C(F)(F)F)c2)c1O = 8.5
• CC(C)(C)NCc1cc(Nc2cc[n+]([O-])c3cc(Cl)ccc23)cc(-c2ccccc2)c1O = 21
• CCC(C)NCc1cc(Nc2cc[n+]([O-])c3cc(Cl)ccc23)cc(-c2ccc(Cl)cc2)c1O (stereo not drawn) = 21.3
